Assay: budding yeast growth modifiers under rapamycin – strain BY4716, OD600, 96 h, primary screen (AID 1091); further: test concentration not given here
Conditions: S. cerevisiae BY4716 + rapamycin; higher = more signal, called active from +8 up or from −8 down unless noted
Class key for z-score values: class A: < -0.2; class B: ≥ -0.2 and < 0.5; class C: ≥ 0.5

>>> class_assignment("CN1CCC(c2ccc(CO)cc2)=CC1C1CC1 (stereo not given)")
"class C"
>>> class_assignment("OCc1ccc(C2=CC(C3CC3)N(Cc3sc4ccccc4c3Cl)CC2)cc1 (stereo not given)")
"class C"
>>> class_assignment("OCc1ccc(C2=CC(c3cccs3)N(Cc3cccc(OC(F)(F)F)c3)CC2)cc1 (stereo not given)")
"class C"
>>> class_assignment("O=P(c1ccccc1)(c1ccccc1)N1CC2(CC2)CC(O)(c2ccccc2)C1 (stereo not given)")
"class A"
>>> class_assignment("C=C(CC1(CNP(=O)(c2ccccc2)c2ccccc2)CC1)c1ccccc1")
"class B"
>>> class_assignment("COC(=O)[C@@]1(Cc2ccccc2)[C@H]2c3cc(C(=O)N(C)C)n(C)c3C[C@H]2CN1C(=O)c1ccccc1")
"class B"
>>> class_assignment("COC(=O)[C@H]1[C@H](c2ccccc2)C(=O)[C@]2(O)c3ccccc3O[C@@]12c1ccccc1")
"class A"
>>> class_assignment("COc1cc2c(cc1O)C(C)N(C)CC2 (stereo not given)")
"class A"
>>> class_assignment("CCc1cc2c(nc1CC)CCN(CCC(C)=NOC)C2")
"class A"
>>> class_assignment("CCCc1cc2c(n1CCO)C(C)C1CN(C(=O)c3ccccc3)C(C)(C(=O)OC)C21 (stereo not given)")
"class B"

###

Experiment: S6 kinase pathway phospho-S6 level changes – cell-based, A549, cytoblot, luminescence, serum-stimulated, primary screen (AID 1158);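 further: serum-stimulated A549 lung adenocarcinoma cells; signal is phosphorylated S6 detected by cytoblot immunostaining with HRP secondary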
Details: 5 h, higher = more signal
Measured z-score of individual entries
property_name: z-score

>>> value_observed("CCCC[C@@H]1C[C@H]1[C@@H](NP(=O)(c1ccccc1)c1ccccc1)c1ccc(Cl)cc1")
-0.554
>>> value_observed("COc1cc2c(cc1O)C(C)N(C)CC2 (configuration not stated)")
-0.0939
>>> value_observed("COc1cc2c(cc1O)C=[N+](C)CC2")
2.42
>>> value_observed("C=C(CC1(CNP(=O)(c2ccccc2)c2ccccc2)CC1)c1ccccc1")
-0.254
>>> value_observed("CN1CCc2nc(CO)c(CO)cc2C1")
-0.121
>>> value_observed("CN1CCC(c2ccc(CO)cc2)=CC1C1CC1 (configuration not stated)")
-1.04
>>> value_observed("CCOC(=O)[C@H]1CC=C2C(=O)Oc3ccccc3[C@@H]21")
-0.395
>>> value_observed("OCc1ccc(C2=CC(c3cccs3)N(Cc3cccc(OC(F)(F)F)c3)CC2)cc1 (configuration not stated)")
-0.0923
>>> value_observed("O=P(c1ccccc1)(c1ccccc1)N1CC2(CC2)CC(O)(c2ccccc2)C1 (configuration not stated)")
0.0869
>>> value_observed("CCCc1cc2c(n1Cc1ccc(C)cc1)C(C)C1CN(C(=O)c3ccccc3)C(C)(C(=O)OC)C21 (configuration not stated)")
1.39
>>> value_observed("CN1CCC(c2ccc(CO)cc2)=CC1c1cccs1 (configuration not stated)")
-0.594
>>> value_observed("COC(=O)[C@H]1[C@@H](O)[C@@]2(O)c3c(OC)cc(OC)cc3O[C@@]2(c2ccc(OC)cc2)[C@@H]1c1ccccc1")
-1.37
>>> value_observed("c1ccc(-c2cc3c(nc2-c2ccccc2)CCNC3)cc1")
-0.597
>>> value_observed("CCOC(=O)[C@H]1CC=C2C(=O)Oc3ccc(Br)cc3[C@@H]21")
-0.747
>>> value_observed("COC(=O)C1(C)C=C2C(=C(C)C(=O)C2C)CN1 (configuration not stated)")
-0.232
>>> value_observed("OCc1ccc(C2=CC(C3CC3)N(Cc3sc4ccccc4c3Cl)CC2)cc1 (configuration not stated)")
-0.627
>>> value_observed("COC(=O)[C@@]1(Cc2ccc(F)cc2)[C@H]2c3cc(C(=O)N(C)C)[nH]c3C[C@H]2CN1C(=O)c1ccccc1")
-0.393
>>> value_observed("COC(=O)[C@H]1[C@H](c2ccccc2)C(=O)[C@]2(O)c3ccccc3O[C@@]12c1ccccc1")
1.55
>>> value_observed("COC(=O)[C@@]1(Cc2ccccc2)[C@H]2c3cc(C(=O)N(C)C)n(C)c3C[C@H]2CN1C(=O)c1ccccc1")
0.553
>>> value_observed("CCCC=C(CCC)[C@@H](NP(=O)(c1ccccc1)c1ccccc1)c1ccccc1")
1.02
>>> value_observed("COC(=O)[C@H]1C(=O)c2ccccc2O[C@@](C(=O)OC)(c2ccccc2)[C@@H]1c1ccccc1")
-0.651
>>> value_observed("CCc1cc2c(nc1CC)CCN(CCC(C)=NOC)C2")
0.481
